System: P12-Ichikawa
experiment-notes: cell viability relative to DMSO control; higher = less cytotoxic
assay-context: RPMI 5 mM glucose + 10% FBS; 48 h; 0.00234 µM

# compound, cell viability [%]
rows = [
    ("OC(COC1=C2C(=O)\\C=C(/OC2=CC=C1)C([O-])=O)COC3=C4C(=O)\\C=C(/OC4=CC=C3)C([O-])=O", 94.9),
    ("NC(=O)c1cccc(N)c1", 106),
    ("Cc1cn(CCN2CCN(c3ccccc3-c3cc(C#N)cc(C(=O)NCCCN4CCCC4)c3)CC2)c2ccccc12", 107),
    ("CC(C)c1ccccc1Cc1cc(C(=O)Nc2ccc([S+](=O)([O-])c3ccccc3C(C)(C)C)cc2)c(O)c(O)c1O", 116),
    ("CC(C)C[C@H](NC(=O)[C@H](Cc1ccccc1)NC(=O)c1cnccn1)B(O)O", 103),
    ("O=C(CCCCCCC(=O)Nc1ccccc1)NO", 97),
    ("COc1cc([C@@H]2c3cc4c(cc3[C@@H](O[C@@H]3O[C@@H]5CO[C@@H](c6cccs6)O[C@H]5[C@H](O)[C@H]3O)[C@H]3COC(=O)[C@H]23)OCO4)cc(OC)c1O", 87.9),
    ("CCN(CC)CCN1C(=O)\\C(=N/C2=CC=CC=C12)CC3=CC=C(OC)C=C3", 113),
    ("C#C[C@]1(O)CC[C@H]2[C@@H]3CCc4cc(OC)ccc4[C@H]3CC[C@@]21C", 101),
    ("COc1cc(-c2nn(C3CCC(N4CCN(C(C)=O)CC4)CC3)c3ncnc(N)c23)ccc1NC(=O)c1cc2ccccc2n1C (configuration not stated)", 114),
    ("C[N+](C)([O-])CCNc1ccc(NCC[N+](C)(C)[O-])c2c1C(=O)c1c(O)ccc(O)c1C2=O", 101),
    ("CN(C)CCCNC(=O)c1ccc(-c2cc(O)c3ncccc3c2)cc1", 97.4),
    ("Oc1cc(O)cc(/C=C/c2ccc(O)c(O)c2)c1", 92.7),
    ("OC1=CC=C(C=C1)\\C2=C\\C(=O)C3=C(O2)C=C(O)C=C3O", 109),
    ("O=C(NNC(=O)c1ccc(CN[S+](=O)([O-])c2ccc(F)c(Cl)c2)cc1)c1ccccc1", 101),
    ("CN[S+](=O)([O-])CCc1ccc2[nH]cc(C3CCN(C)CC3)c2c1", 91.6),
    ("CCN1C[C@]2(OC(=O)c3ccccc3NC(C)=O)CC[C@H](OC)[C@@]34[C@@H]2C[C@@H]([C@@H]13)[C@@]1(O)C[C@H](OC)[C@H]2C[C@@H]4[C@]1(O)[C@H]2OC", 109),
]
